- TESTED_TARGET: NRF2-KEAP1 interaction (Mus musculus)
- Construct: mouse KEAP1 Kelch domain (residues 322-624); peptide purchased from GenScript USA Inc
- Sequence (Q9Z2X8 322-624): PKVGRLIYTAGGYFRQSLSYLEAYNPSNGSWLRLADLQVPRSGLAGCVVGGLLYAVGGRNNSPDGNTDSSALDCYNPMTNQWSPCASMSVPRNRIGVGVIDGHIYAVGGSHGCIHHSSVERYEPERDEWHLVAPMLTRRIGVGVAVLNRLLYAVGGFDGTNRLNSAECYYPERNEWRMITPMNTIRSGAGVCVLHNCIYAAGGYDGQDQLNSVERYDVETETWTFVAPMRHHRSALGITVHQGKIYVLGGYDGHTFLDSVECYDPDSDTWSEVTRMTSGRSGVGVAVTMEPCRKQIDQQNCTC
- MEASUREMENT_NOTES: Fluorescence polarization (FP) Level-2 NRF2 peptide displacement
- PROTOCOL_CONDITIONS: Level-2 FP, displacement of TAMRA-NRF2 peptide
MEASURE: IC50 (nM)
API: value field is a number in nM; no unit string.

Qu. Requested field: IC50. Item: O=C(O)c1ccc(NC2=C/C(=N\S(=O)(=O)c3ccc4ccccc4c3)c3ccccc3C2=O)cc1
Ans. 2700

---

- MEASUREMENT_NOTES: Dynamic light scattering (DLS) aggregation
- Assay type: physicochemical
- PROTOCOL_CONDITIONS: 20 μM compound, triplicates average
For each entry below, report its Radius value.
API: value field is a number in nm; no unit string.

Qu. Requested field: Radius. Item: O=C(Nc1cccc(-c2nnn[nH]2)c1)[C@@H]1C[C@H]2CCCC[C@H]2N1C(=O)c1ccc2ccccc2c1
Ans. 3.340

Qu. Requested field: Radius. Item: Cc1ccc(C)c(N2C(=O)c3ccc(-c4nc(-c5ccc6[nH]nnc6c5)no4)cc3C2=O)c1
Ans. 2.643

Qu. Requested field: Radius. Item: Cc1ccc(S(=O)(=O)Oc2nc3nc4ccccc4nc3nc2OS(=O)(=O)c2ccc(C)cc2)cc1
Ans. 2.306

Qu. Requested field: Radius. Item: O=C(O)c1ccc(NC2=C/C(=N\S(=O)(=O)c3ccc4ccccc4c3)c3ccccc3C2=O)cc1
Ans. 12.492
